Hey, just so you know, these numbers are from patent US11352340B2.

Listing: pIC50 of selected molecules
biological target: PI3Kγ (p110γ) Recombinant Human Protein (Homo sapiens (Human), UniProt P48736); assay: PI3K-γ Scintillation Proximity Assay; settings: read-out: PI3K-gamma SPA IC50
Sequence (P48736 whole entry): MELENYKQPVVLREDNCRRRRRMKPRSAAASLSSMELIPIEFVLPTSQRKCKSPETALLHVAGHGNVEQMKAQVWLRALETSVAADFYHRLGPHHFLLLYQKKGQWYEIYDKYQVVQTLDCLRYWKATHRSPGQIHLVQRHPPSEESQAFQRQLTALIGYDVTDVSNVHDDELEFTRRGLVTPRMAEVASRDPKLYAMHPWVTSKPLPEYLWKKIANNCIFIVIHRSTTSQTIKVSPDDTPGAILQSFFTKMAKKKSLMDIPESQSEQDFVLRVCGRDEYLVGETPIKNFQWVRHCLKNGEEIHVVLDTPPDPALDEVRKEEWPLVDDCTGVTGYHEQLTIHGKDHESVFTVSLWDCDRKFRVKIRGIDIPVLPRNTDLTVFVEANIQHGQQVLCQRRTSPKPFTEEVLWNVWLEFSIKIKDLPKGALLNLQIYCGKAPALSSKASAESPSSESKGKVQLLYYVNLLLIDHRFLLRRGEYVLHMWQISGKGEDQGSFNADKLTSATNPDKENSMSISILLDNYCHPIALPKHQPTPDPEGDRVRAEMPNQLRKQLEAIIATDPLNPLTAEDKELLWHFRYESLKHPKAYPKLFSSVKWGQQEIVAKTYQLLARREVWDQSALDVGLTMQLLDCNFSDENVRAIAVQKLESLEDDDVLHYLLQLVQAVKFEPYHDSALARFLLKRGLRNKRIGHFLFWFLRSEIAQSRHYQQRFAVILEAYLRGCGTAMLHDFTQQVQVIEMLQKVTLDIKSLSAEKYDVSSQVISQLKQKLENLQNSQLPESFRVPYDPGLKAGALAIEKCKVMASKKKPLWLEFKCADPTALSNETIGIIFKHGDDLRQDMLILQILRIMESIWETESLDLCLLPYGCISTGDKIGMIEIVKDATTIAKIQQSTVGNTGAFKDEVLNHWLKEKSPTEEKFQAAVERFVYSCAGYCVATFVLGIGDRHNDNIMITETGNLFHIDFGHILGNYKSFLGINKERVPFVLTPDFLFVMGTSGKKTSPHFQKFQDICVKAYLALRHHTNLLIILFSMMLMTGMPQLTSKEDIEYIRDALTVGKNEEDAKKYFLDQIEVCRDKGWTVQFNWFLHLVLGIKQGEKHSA
pIC50: −log10 of the molar value. Structures can show the parent of a compound that is named as a salt.

Use the examples below as a reference point.
CS(=O)(=O)c1cncc(-c2ccnc(-c3ncc(-c4ccccn4)[nH]3)c2)c1 | ≥ 7.30
COCCN(C)C(=O)c1cncc(-c2ccnc(-c3nc(C)c(C)[nH]3)c2)c1 [Example 204, trifluoroacetate salt] | ≥ 7.00
Cc1[nH]c(-c2cc(-c3cncc(N4CCOCC4)c3)ccn2)nc1C(=O)NC(C)c1cccc(F)c1 (racemic) [Example 277, trifluoroacetate salt] | ≥ 7.30
CCc1cnc(-c2cc(-c3cncc(N4CCOCC4)c3)ccn2)[nH]1 [Example 100, trifluoroacetate salt] | ≥ 6.30
O=C(Nc1cncc(-c2ccnc(-c3ncc(-c4ccccc4)[nH]3)c2)c1)c1ccccc1 | ≥ 6.30

What value of pIC50 has been reported for the following molecule? c1ccc(-c2cnc(-c3cc(-c4ccc(N5CCOCC5)nc4)ccn3)[nH]2)cc1 [Example 41, trifluoroacetate salt]
< 6.30

Please give the result for Cc1[nH]c(-c2cc(-c3cncc(N4CCOCC4)c3)ccn2)nc1C(=O)N1CC(C)(C)C1 too.
≥ 7.30
